I'd be grateful if you could share measured Enzyme activity blocking assay, MAX % inhibition for these entries.
Target: T1, human CD73 (full length, on transfected CHOK1 cells) (human, UniProt P21589 27-549)
T1 sequence (looked up): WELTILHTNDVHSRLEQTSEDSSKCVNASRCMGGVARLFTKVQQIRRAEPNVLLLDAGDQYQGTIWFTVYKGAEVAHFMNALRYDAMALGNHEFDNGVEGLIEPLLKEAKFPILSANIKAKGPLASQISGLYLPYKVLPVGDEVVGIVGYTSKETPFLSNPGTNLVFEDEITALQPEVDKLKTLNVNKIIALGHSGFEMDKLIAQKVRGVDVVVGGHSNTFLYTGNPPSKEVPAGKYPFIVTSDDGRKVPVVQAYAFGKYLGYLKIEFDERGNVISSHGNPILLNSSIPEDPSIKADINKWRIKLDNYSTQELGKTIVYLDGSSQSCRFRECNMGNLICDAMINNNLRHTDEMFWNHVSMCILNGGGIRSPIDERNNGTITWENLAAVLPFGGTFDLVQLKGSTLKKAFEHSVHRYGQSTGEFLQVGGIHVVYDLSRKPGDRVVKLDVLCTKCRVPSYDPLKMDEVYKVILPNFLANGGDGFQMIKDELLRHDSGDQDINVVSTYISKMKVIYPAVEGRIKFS
Assay: cell-based or functional assay
Give the quantity in %, number only.

(Q) Fill in Enzyme activity blocking assay, MAX % inhibition for record mAb030 (clone 42A5A7), murine anti-CD73 antibody (antibody, V domains shown, Purified from hybridoma supernatant; also called antibody 030) VH: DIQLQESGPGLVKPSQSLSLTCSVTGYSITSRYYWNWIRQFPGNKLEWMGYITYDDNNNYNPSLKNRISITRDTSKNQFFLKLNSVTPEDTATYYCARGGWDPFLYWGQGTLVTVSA VL: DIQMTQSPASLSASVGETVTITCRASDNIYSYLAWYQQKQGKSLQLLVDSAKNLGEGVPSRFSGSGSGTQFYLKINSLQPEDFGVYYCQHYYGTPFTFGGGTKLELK
(A) 74.6

(Q) Fill in Enzyme activity blocking assay, MAX % inhibition for record mAb041 (clone 71E10B3), murine anti-CD73 antibody (antibody, V domains shown, Purified from hybridoma supernatant) VH: QVQLQQPGTELVKPGASVKLSCKASGYTFTSYWMHWVKQRPGQGLEWIGNINPSNGGTNYNQKFKSKATLTVDKSSNTASMQLSSLTSEDSAVYYCARGDYGYDWYLDVWGTGTTVTVSS VL: DIVLTQSPASLAVSLGQRAIISCKASQSVSFAGPSLMHWYQQKPGQQPKLLIYRTSNLEAGVPTRFSGSGSGTDFTLNIHPVEEDDAATYYCQQNREFPWTFGGGTKLEIK
(A) 35.7

(Q) Fill in Enzyme activity blocking assay, MAX % inhibition for record mAb038 (clone 69C9E12), murine anti-CD73 antibody (antibody, V domains shown, Purified from hybridoma supernatant) VH: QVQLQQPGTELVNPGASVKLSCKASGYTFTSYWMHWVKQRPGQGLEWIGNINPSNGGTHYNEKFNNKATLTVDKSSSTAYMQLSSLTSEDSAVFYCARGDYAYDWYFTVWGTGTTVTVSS VL: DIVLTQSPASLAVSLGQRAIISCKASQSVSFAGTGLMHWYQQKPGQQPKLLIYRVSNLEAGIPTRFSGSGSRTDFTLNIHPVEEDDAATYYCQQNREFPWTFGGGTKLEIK
(A) 53.3
